Documented melting point across a set of molecules
Give the value in °C but do not write °C after it.

Look over these answered cases.
CS(=O)(=O)c1cccc(N2CCN(CC[C@H]3CC[C@H](NC(=O)CCC(F)(F)F)CC3)CC2)c1 ... 205
O=C(N[C@H]1CC[C@H](CCN2CCN(c3ccc(F)cc3F)CC2)CC1)C1=CCCCC1 ... 203
CCOCC(=O)N[C@H]1CC[C@H](CCN2CCN(c3cccc(C(F)(F)F)c3)CC2)CC1.Cl ... 184

So what's the measured melting point for this one? CCc1cccc(N2CCN(CC[C@H]3CC[C@H](NC(=O)CCC#N)CC3)CC2)c1
143

So what's the measured melting point for this one? N#CCCCC(=O)N[C@H]1CC[C@H](CCN2CCN(c3ccc4c(c3)CCCC4)CC2)CC1
170

So what's the measured melting point for this one? Cc1cccc(N2CCN(CC[C@H]3CC[C@H](NC(=O)CC(F)(F)F)CC3)CC2)c1C#N
207

###

Documented melting point across a set of molecules

Look over these answered cases.
N#CCCC(=O)N[C@H]1CC[C@H](CCN2CCN(c3cc(C(F)(F)F)ccc3F)CC2)CC1 [Example 668] ... 164 °C
CC(=O)CN1CCC(CCN2CC=C(c3cccc(C(F)(F)F)c3)CC2)CC1.Cl.Cl ... 268 °C

So what's the measured melting point for this one? NC(=O)CC(=O)N[C@H]1CC[C@H](CCN2CCN(c3cc(C(F)(F)F)cc(C(F)(F)F)c3)CC2)CC1 [Example 738]
165 °C

So what's the measured melting point for this one? Cc1ccc(Cl)cc1N1CCN(CC[C@H]2CC[C@H](NC(=O)CCCC#N)CC2)CC1 [Example 248]
152 to 153 °C

So what's the measured melting point for this one? COc1ccc(C)c(N2CCN(CC[C@H]3CC[C@H](NC(=O)CCCC#N)CC3)CC2)c1 [Example 391]
170 °C

So what's the measured melting point for this one? COCC(=O)N[C@H]1CC[C@H](CCN2CCN(c3cccc(C(F)(F)F)c3)CC2)CC1 [Example 41]
123 °C

###

Measured Quantity: melting point (°C)
Give the value in °C but do not write °C after it.

Look over these answered cases.
COCC(=O)N[C@H]1CC[C@H](CCN2CCN(c3ccc(F)cc3F)CC2)CC1 ... 154
O=C(N[C@H]1CC[C@H](CCN2CCN(c3cccc(C(F)(F)F)c3F)CC2)CC1)C1=CCCC1 ... 190
CC(=O)CN1CCC(CCN2CCN(c3cccc(OC(F)(F)F)c3)CC2)CC1.Cl.Cl ... 275
CCc1ccccc1N1CCN(CC[C@H]2CC[C@H](NC(=O)CC(F)(F)F)CC2)CC1 ... 135
CCOCC(=O)N[C@H]1CC[C@H](CCN2CCN(c3cccc(C#N)c3)CC2)CC1 ... 90
N#CCCCC(=O)N[C@H]1CC[C@H](CCN2CCN(c3cc(C#N)ccc3Cl)CC2)CC1 ... 206

So what's the measured melting point for this one? Cc1ccccc1N1CCN(CC[C@H]2CC[C@H](NC(=O)CCCC#N)CC2)CC1
160

So what's the measured melting point for this one? CCOCC(=O)N[C@H]1CC[C@H](CCN2CCN(c3ccc(Cl)c(Cl)c3)CC2)CC1
112

So what's the measured melting point for this one? Cl.O=C(CCC(F)(F)F)N1CCC(CCN2CCN(c3cccc4c3CCC4)CC2)CC1
219

So what's the measured melting point for this one? CNC(=O)C=C1CCC(CCN2CCN(c3ccccc3F)CC2)CC1 (stereo not shown)
135

So what's the measured melting point for this one? CCOCC(=O)N[C@H]1CC[C@H](CCN2CCN(c3ccc(C)c(Cl)c3)CC2)CC1.Cl
162

These entries and their values trace back to patent US8802678B2.
